measured.target: PI3Kγ (Homo sapiens)
Construct: host or cells: THP-1
assay.procedure: PI3Kγ cellular assay in THP-1 cells (AKT pS473 AlphaLISA)
Type: cell-based
measurement.context: AKT pS473, read-out: cellular potency (PI3Kγ IC50)
Description: Twenty microliters of serum starved THP-1 cells were added to the compound plate in serum free DMEM at a density of 9×10^6 cells per ml. […] PI3Kγ activity was evaluated as a correlate of endogenous AKT phosphorylation levels. Percentage maximum activity in each test well was calculated based on DMSO (100% activity) and positive control treated cell wells (0% activity). The potencies (IC50's) of test compounds were determined using a standard 4-parameter fit non-linear regression fit.
observation.type: IC50

>  <compound>
C[C@@H](C1CC1)N1Cc2cc(-c3ccn4nc(N)c(C(=O)NCC5(O)CC5)c4n3)cc(NS(C)(=O)=O)c2C1=O [Example 381]

>  <result>
100 to 1000 nM

$$$$
>  <compound>
COC(=O)c1cc(NC(=O)c2c(N)nn3ccc(-c4cc5c(c(NS(C)(=O)=O)c4)C(=O)N([C@@H](C)C4CC4)C5)nc23)ccn1 [Example 375]

>  <result>
100 to 1000 nM

$$$$
>  <compound>
CC(C)[C@H](CO)NC(=O)c1c(N)nn2ccc(-c3cc4c(c(NS(C)(=O)=O)c3)C(=O)N([C@@H](C3CC3)C(F)(F)F)C4)nc12 [Example 400]

>  <result>
100 to 1000 nM

$$$$

* * *

measured.target: PI3Kγ (Homo sapiens, UniProt P48736)
Construct: host or cells: THP-1
Sequence (P48736 whole entry): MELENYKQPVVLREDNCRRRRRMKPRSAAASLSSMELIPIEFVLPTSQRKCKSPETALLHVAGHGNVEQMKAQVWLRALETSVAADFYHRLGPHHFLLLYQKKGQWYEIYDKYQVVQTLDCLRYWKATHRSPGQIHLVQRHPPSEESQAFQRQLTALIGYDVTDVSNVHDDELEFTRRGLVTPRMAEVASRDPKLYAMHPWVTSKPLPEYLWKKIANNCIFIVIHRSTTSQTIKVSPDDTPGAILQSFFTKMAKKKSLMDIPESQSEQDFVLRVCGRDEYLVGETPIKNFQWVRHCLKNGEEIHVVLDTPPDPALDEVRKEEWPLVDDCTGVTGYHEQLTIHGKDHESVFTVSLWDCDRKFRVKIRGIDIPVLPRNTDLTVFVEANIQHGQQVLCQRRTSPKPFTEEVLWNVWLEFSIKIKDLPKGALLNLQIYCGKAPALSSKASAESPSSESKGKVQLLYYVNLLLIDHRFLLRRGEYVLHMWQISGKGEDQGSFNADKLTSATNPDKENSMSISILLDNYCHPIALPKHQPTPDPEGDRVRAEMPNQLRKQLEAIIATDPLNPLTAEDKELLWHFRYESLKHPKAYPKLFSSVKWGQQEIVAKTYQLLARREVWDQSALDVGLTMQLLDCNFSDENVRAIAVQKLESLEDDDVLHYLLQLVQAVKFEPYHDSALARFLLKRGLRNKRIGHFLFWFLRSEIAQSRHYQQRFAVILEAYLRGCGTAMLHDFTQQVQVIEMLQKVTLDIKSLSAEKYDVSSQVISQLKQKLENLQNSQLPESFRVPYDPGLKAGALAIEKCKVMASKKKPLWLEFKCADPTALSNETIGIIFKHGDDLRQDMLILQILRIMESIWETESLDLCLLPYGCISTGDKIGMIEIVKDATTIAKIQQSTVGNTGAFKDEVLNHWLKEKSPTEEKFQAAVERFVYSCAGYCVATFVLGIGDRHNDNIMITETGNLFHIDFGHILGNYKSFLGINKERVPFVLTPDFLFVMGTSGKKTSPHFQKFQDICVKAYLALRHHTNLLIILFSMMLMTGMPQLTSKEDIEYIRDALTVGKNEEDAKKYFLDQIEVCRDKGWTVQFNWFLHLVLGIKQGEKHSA
assay.procedure: PI3Kγ cellular assay in THP-1 cells (AKT pS473 AlphaLISA)
Format: cell-based
measurement.context: Table 6, rhMCP-1 stimulated AKT pS473, read-out: cellular potency (PI3Kγ IC50)
Consider the following molecules and their measured IC50 readings.
observation.type: IC50

>  <molecule>
C[C@@H](C1CC1)N1Cc2cc(-c3ccn4nc(N)c(C(=O)N[C@H]5C[C@@](C)(O)C5)c4n3)cc(N3CC[C@@H](O)C3)c2C1=O

>  <observation.type>
IC50

>  <result>
100 to 1000 nM

$$$$
>  <molecule>
CC[C@H](N1Cc2cc(-c3ccn4nc(N)c(C(=O)NC5CC5)c4n3)cc(Cl)c2C1=O)C(F)(F)F

>  <observation.type>
IC50

>  <result>
100 to 1000 nM

$$$$
>  <molecule>
COc1ccc(NC(=O)c2c(N)nn3ccc(-c4cc5c(c(OC(F)(F)F)c4)C(=O)N([C@@H](C)C4CC4)C5)nc23)cn1

>  <observation.type>
IC50

>  <result>
100 to 1000 nM

$$$$
>  <molecule>
C[C@@H](C1CC1)N1Cc2cc(-c3ccn4nc(N)c(C(=O)N[C@@H](CO)C5CC5)c4n3)cc(C(C)(C)O)c2C1=O

>  <observation.type>
IC50

>  <result>
100 to 1000 nM

$$$$
>  <molecule>
C[C@H](N1Cc2cc(-c3ccn4nc(N)c(C(=O)N[C@@H](CO)C5CC5)c4n3)cc(N3CC[C@@H](O)C3)c2C1=O)C(F)(F)F

>  <observation.type>
IC50

>  <result>
100 to 1000 nM

$$$$
>  <molecule>
C[C@@H](C1CC1)N1Cc2cc(-c3ccn4nc(N)c(C(=O)N[C@H]5C[C@](C)(O)C5)c4n3)cc(S(C)(=O)=O)c2C1=O

>  <observation.type>
IC50

>  <result>
100 to 1000 nM

$$$$
>  <molecule>
C[C@@H](C1CC1)N1Cc2cc(-c3ccn4nc(N)c(C(=O)Nc5ccccc5)c4n3)cc(OC(F)(F)F)c2C1=O

>  <observation.type>
IC50

>  <result>
> 1000 nM

$$$$
>  <molecule>
C[C@@H](C1CC1)N1Cc2cc(-c3ccn4nc(N)c(C(=O)N[C@H]5CC[C@@](C)(O)CC5)c4n3)cc(S(C)(=N)=O)c2C1=O (some centres unmarked)

>  <observation.type>
IC50

>  <result>
100 to 1000 nM

$$$$
>  <molecule>
C[C@@H](C1CC1)N1Cc2cc(-c3ccn4nc(N)c(C(=O)Nc5cccnc5)c4n3)cc(N3CC[C@@H](O)C3)c2C1=O

>  <observation.type>
IC50

>  <result>
100 to 1000 nM

$$$$
>  <molecule>
C[C@H](CO)NC(=O)c1c(N)nn2ccc(-c3cc4c(c(N5CC(F)(F)C5)c3)C(=O)N([C@@H](C)C3CC3)C4)nc12

>  <observation.type>
IC50

>  <result>
100 to 1000 nM

$$$$
>  <molecule>
C[C@@H](C1CC1)N1Cc2cc(-c3ccn4nc(N)c(C(=O)NC5CC5)c4n3)cc(N3CC(O)C3)c2C1=O

>  <observation.type>
IC50

>  <result>
100 to 1000 nM

$$$$
>  <molecule>
Cc1nn(C)cc1NC(=O)c1c(N)nn2ccc(-c3cc4c(c(OC(F)F)c3)C(=O)N([C@@H](C)C3CC3)C4)nc12

>  <observation.type>
IC50

>  <result>
< 100 nM

$$$$
>  <molecule>
CC(C)NS(=O)(=O)c1cc(-c2ccn3nc(N)c(C(=O)NC4CC4)c3n2)cc2c1C(=O)N([C@@H](C)C1CC1)C2

>  <observation.type>
IC50

>  <result>
100 to 1000 nM

$$$$
>  <molecule>
C[C@@H](C1CC1)N1Cc2cc(-c3ccn4nc(N)c(C(=O)N[C@@H]5CCC(=O)NC5)c4n3)cc(OC(F)(F)F)c2C1=O

>  <observation.type>
IC50

>  <result>
100 to 1000 nM

$$$$

* * *

# IC50 per record follows
measured.target: PI3Kγ (p120γ) (Homo sapiens)
Construct: purchased Promega V1761
Sequence (P48736 whole entry): as above
assay.procedure: Inhibition of PI3K kinase activity (ADP Glo), PI3Kγ
measurement.context: Table 1, p120γ, read-out: biochemical potency (PI3Kγ IC50)
observation.type: IC50

>  <chemical.string>
Cc1cc(-c2ccn3nc(N)c(C(=O)N[C@H]4CC[C@](C)(O)CC4)c3n2)cc2c1C(=O)N([C@@H](C)C1CC1)C2

>  <measured.target>
PI3Kγ (p120γ) (Homo sapiens)

>  <observation.type>
IC50

>  <result>
< 100 nM

$$$$
>  <chemical.string>
C[C@@H](C1CC1)N1Cc2cc(-c3ccn4nc(N)c(C(=O)N[C@H]5CCC[C@@H](O)C5)c4n3)cc(C(F)(F)F)c2C1=O

>  <measured.target>
PI3Kγ (p120γ) (Homo sapiens)

>  <observation.type>
IC50

>  <result>
< 100 nM

$$$$
>  <chemical.string>
C[C@@H](C1CC1)N1Cc2cc(-c3ccn4nc(N)c(C(=O)N[C@H]5CC[C@@](C)(O)CC5)c4n3)cc(C(C)(C)O)c2C1=O

>  <measured.target>
PI3Kγ (p120γ) (Homo sapiens)

>  <observation.type>
IC50

>  <result>
< 100 nM

$$$$

* * *

measured.target: PI3Kγ (Homo sapiens)
Construct: host or cells: THP-1
assay.procedure: PI3Kγ cellular assay in THP-1 cells (AKT pS473 AlphaLISA)
Format: cell-based
measurement.context: Table 1, rhMCP-1 stimulated AKT pS473, read-out: cellular potency (PI3Kγ IC50)

>  <compound>
CCNC(=O)c1c(N)nn2ccc(-c3cc4c(c(C(F)(F)F)c3)C(=O)N([C@@H](C)C3CC3)C4)nc12 [Example 68]

>  <IC50>
< 100 nM

$$$$
>  <compound>
Cc1ccc(NC(=O)c2c(N)nn3ccc(-c4cc5c(c(OC(F)(F)F)c4)C(=O)N([C@@H](C)C4CC4)C5)nc23)cn1 [Example 45]

>  <IC50>
< 100 nM

$$$$
>  <compound>
Cc1cc(-c2ccn3nc(N)c(C(=O)Nc4cccc(C(=O)O)c4)c3n2)cc2c1C(=O)N([C@@H](C)C1CC1)C2 [Example 15]

>  <IC50>
< 100 nM

$$$$

* * *

Attribute: pIC50
measured.target: PI3Kγ (Homo sapiens)
Construct: host or cells: THP-1
assay.procedure: PI3Kγ cellular assay in THP-1 cells (AKT pS473 AlphaLISA)
Assay type: cell-based
measurement.context: Table 3, rhMCP-1 stimulated AKT pS473, read-out: cellular potency (PI3Kγ IC50)
pIC50: −log10 of the molar value.
observation.type: pIC50

>  <compound>
C[C@@H](C1CC1)N1Cc2cc(-c3ccn4nc(N)c(C(=O)N[C@H]5CCCNC5)c4n3)cc(C(F)(F)F)c2C1=O

>  <observation.type>
pIC50

>  <result>
6.00 to 7.00

$$$$
>  <compound>
C[C@@H](C1CC1)N1Cc2cc(-c3ccn4nc(N)c(C(=O)N[C@H]5CCC[C@@H](N)C5)c4n3)cc(C(F)(F)F)c2C1=O

>  <observation.type>
pIC50

>  <result>
< 6.00

$$$$
>  <compound>
C[C@@H](C1CC1)N1Cc2cc(-c3ccn4nc(N)c(C(=O)NC5CC5c5ccccc5)c4n3)cc(C(F)(F)F)c2C1=O (stereo partly drawn)

>  <observation.type>
pIC50

>  <result>
6.00 to 7.00

$$$$
>  <compound>
C[C@@H](C1CC1)N1Cc2cc(-c3ccn4nc(N)c(C(=O)NCCCS(C)(=O)=O)c4n3)cc(C(F)(F)F)c2C1=O

>  <observation.type>
pIC50

>  <result>
6.00 to 7.00

$$$$
>  <compound>
C[C@@H](C1CC1)N1Cc2cc(-c3ccn4nc(N)c(C(=O)N[C@H]5CCC[C@H](N)C5)c4n3)cc(C(F)(F)F)c2C1=O

>  <observation.type>
pIC50

>  <result>
< 6.00

$$$$
>  <compound>
C[C@@H](C1CC1)N1Cc2cc(-c3ccn4nc(N)c(C(=O)NC5(CO)CC5)c4n3)cc(C(F)(F)F)c2C1=O

>  <observation.type>
pIC50

>  <result>
6.00 to 7.00

$$$$
